System: IFN-α signaling pathway
Experiment: High-Throughput Integrated Transcriptional Screening (HITS), qPCR of IFN-α signature gene set in THP-1 cells
Assay type: cell-based, human
Conditions: compound 10 μM, 100 IU/ml IFN-α 4 h, a gene inhibited by more than 50% gets its maximum score, scores added, hit if greater than 50% of maximum
Excerpt: The unique gene expression signature of the IFN-α signaling pathway was established in THP-1 cells by comparing the gene profiles of the fully activated IFNα pathway to the basal gene expression. […] We used the house keeping gene, GAPDH, as the normalization control for the IFN-α gene signature set to correct the overall variability in the qPCR based HITS process. The corrected profiles were then normalized to the basal gene expression levels determined by using the vehicle only treatments. […]
endpoint.name: HTS Score
Format: numeric value only, no unit, no commentary.

// solved cases for HTS Score follow
compound	meas.value
CCC(=O)CCCCC[C@@H]1NC(=O)[C@H]2CCCCN2C(=O)C([C@@H](C)CC)NC(=O)[C@H](Cc2cn(OC)c3ccccc23)NC1=O (stereo partly drawn)	0.89
C=CC(=O)C1=CC2C=CC=CC2C=C1 (stereo not drawn)	0.79
O=C(CCCCCN1C(=O)c2cccc3cccc(c23)C1=O)NO	0.88
NC(=O)Nc1sc(-c2ccc(F)cc2)cc1C(N)=O	0.95
CC(C)(C)c1nc2c3ccc(F)cc3c3c(=O)[nH]ccc3c2[nH]1	0.9

Let us move to another entry and its HTS Score.
Prompt line: Assign HTS Score to the following record: `CC(/C=C/C(=O)NO)=C\[C@@H](C)C(=O)c1ccc(N(C)C)cc1`
Response line: 1
